# protocol_notes: Metabolic stability test: liver microsomal stability assay
# Type: in vitro ADME, mouse
# settings: male, pH 7.4; mouse liver microsomes 0.5 mg protein/mL, compound 1 µM, presence of NADPH; read-out: Mouse Hepatic Microsome CLh,int NADPH(+)
Positions of bridges follow the written chain, without caps; N, C: chain ends. Non-standard residues stand in square brackets, D forms with d. Residues, ends and D or L forms follow the SMILES beside them. *: point of attachment. NMeF = CN[C@@H](Cc1ccccc1)C(=O)O; NMeD = CN[C@@H](CC(=O)O)C(=O)O; NMeL = CN[C@@H](CC(C)C)C(=O)O; NMeV = CN[C@H](C(=O)O)C(C)C; NMeA = CN[C@@H](C)C(=O)O; Piperidide = C1CCN(*)CC1; Abu = CC[C@H](N)C(=O)O; Sar = CNCC(=O)O; tBu = CC(C)(C)*
property_label: microsomal CLint at 1 µM (µL/min/mg)
Reply with just the number (in µL/min/mg).

stdin: For the compound CC[C@@H]1NC(=O)[C@H](CC(C)C)N(C)C(=O)[C@H]([C@@H](C)O)NC(=O)[C@H](C(C)C)N(C)C(=O)[C@H](Cc2ccccc2)N(C)C(=O)[C@@H](C(C)C)NC(=O)C[C@@H](C(=O)N2CCCCC2)N(C)C(=O)CN(C)C(=O)[C@H](Cc2ccccc2)N(C)C(=O)[C@H](C)N(C)C(=O)[C@H](COC(C)(C)C)NC(=O)[C@H](CC(C)C)N(C)C(=O)CN(C)C1=O [pd162] ([dV][NMeF][NMeV]T[NMeL][Abu][Sar][NMeL]S(tBu)[NMeA][NMeF][Sar][NMeD]-Piperidide; lactam N-13) , what microsomal CLint at 1 µM is on record?
stdout: 12.5
